- Test system: mannanase
- testProtocol: Effect of metal ions and chemicals on mannanase activity
- Assay type: biochemical, Cellulosimicrobium sp. HY-13
- conditions: metal ions 1 mM, chemicals 5 mM; pH 6.0, 50° C., 10 minutes
recordedMetric: effect on the enzyme activity

So what does the record say about effect on the enzyme activity for O=C1CCC(=O)N1Br [N-Bromosuccinimide] ?
inactivated

Repeat with [Cl][Hg][Cl] [HgCl2]
inactivated

Repeat with O=S(=O)([O-])[O-].[Mg+2] [MgSO4]
no effect

Repeat with [Cl][Sn][Cl] [SnCl2]
no effect

* * *

- System: mannanase
- testProtocol: Effect of metal ions and chemicals on mannanase activity
- Format: biochemical, Cellulosimicrobium sp. HY-13
- conditions: metal ions 1 mM; 50 mM sodium phosphate buffer (pH 6.0), 50° C., 10 minutes; None = 100.0
recordedMetric: Relative activity (%)
Supply the numeric figure in %, leaving out any unit text.

Answered examples (6):
API: value(readout=Relative activity (%), system=mannanase) for record [Cl][Sn][Cl] [SnCl2]
103.7

Repeat with O=S(=O)([O-])[O-].[Zn+2] [ZnSO4]
47.4

Repeat with O=S(=O)([O-])[O-].[Fe+2] [FeSO4]
42.2

Repeat with O=S(=O)([O-])[O-].[Ni+2] [NiSO4]
67.1

Repeat with [Cl][Cu][Cl] [CuCl2]
16.7

Repeat with [Ba+2].[Cl-].[Cl-] [BaCl2]
118.5

Others:
API: value(readout=Relative activity (%), system=mannanase) for record O=S(=O)([O-])[O-].[Mg+2] [MgSO4]
99.9

Repeat with [Ca+2].[Cl-].[Cl-] [CaCl2]
146.9

Repeat with [Cl][Hg][Cl] [HgCl2]
0

Repeat with [Cl][Mn][Cl] [MnCl2]
125.2
